Below are GI50 values measured for SiHa.
Observed Property: GI50 (nM)

* CCOP(=O)(CCCN1CCN(CCCCCOc2cc3c(cc2OC)C(=O)N2CCC[C@H]2C=N3)CC1)OCC | 2460
* CCOP(=O)(CCCOc1cc2c(cc1OC)C(=O)N1CCC[C@H]1C=N2)OCC | 2100
* CCOP(=O)(CCN1CCN(CCCCCOc2cc3c(cc2OC)C(=O)N2CCC[C@H]2C=N3)CC1)OCC | 210
* COc1cccc2c1C(=O)c1c(O)c3c(c(O)c1C2=O)C[C@@](O)(C(=O)CO)C[C@@H]3O[C@H]1C[C@H](N)[C@H](O)[C@H](C)O1 | 180
